B1: library; the commonest letter at each place (parent)
chain: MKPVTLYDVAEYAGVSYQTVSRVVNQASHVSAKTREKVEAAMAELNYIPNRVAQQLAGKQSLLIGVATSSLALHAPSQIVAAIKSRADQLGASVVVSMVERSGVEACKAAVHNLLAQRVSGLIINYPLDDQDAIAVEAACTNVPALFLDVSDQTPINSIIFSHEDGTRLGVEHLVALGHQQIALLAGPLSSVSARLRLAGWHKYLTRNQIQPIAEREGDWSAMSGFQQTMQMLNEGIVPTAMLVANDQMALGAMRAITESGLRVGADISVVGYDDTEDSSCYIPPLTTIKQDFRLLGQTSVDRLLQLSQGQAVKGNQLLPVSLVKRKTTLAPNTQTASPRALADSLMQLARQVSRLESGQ

- Variants of: B1
- assay.procedure: basal output G0 (YFP, no IPTG) (log10 MEF); higher = higher reporter expression without inducer
- cond: with IPTG
Please enter condition met where basal output G0 (log10) is greater than or equal to 3, and condition not met where it is lower.

> print(dat)
              mutant.designation       answer.label
1  A109E D165V G166A R255C E259G      condition met
2                          D130E  condition not met
3                     S69T S279T  condition not met
4                      S70R S97T      condition met
5        I160N Q231H I289V D302E  condition not met

Check the entry L169P : does basal output G0 (log10) equal or exceed 3?
condition not met

Check the entry S70R S190C : does basal output G0 (log10) equal or exceed 3?
condition not met

Check the entry Q55H D130E V192A T258I D267N Y273H N333I : does basal output G0 (log10) equal or exceed 3?
condition met

Check the entry A82G : does basal output G0 (log10) equal or exceed 3?
condition not met

Check the entry S97T : does basal output G0 (log10) equal or exceed 3?
condition not met

Check the entry S93N V99E S102R L198Q S260F A337S : does basal output G0 (log10) equal or exceed 3?
condition met

Check the entry S120G M223L F226L L319F R355L : does basal output G0 (log10) equal or exceed 3?
condition not met

Check the entry S77P E105V : does basal output G0 (log10) equal or exceed 3?
condition not met
